Assay text: Clinical pharmacokinetics, plasma LC-MS/MS after single oral dose of AP capsules
Assay type: in vivo, human (healthy volunteers)
Measurement setup: human, plasma, oral, 2000 mg, S1; 6.00 h; 2000 mg AP capsules; read-out: Plasma concentration
Test readout: concentration at 6 h (ng/mL)

C=C1CC[C@@H]2[C@](C)(CO)[C@H](O)CC[C@@]2(C)[C@@H]1C/C=C1/C(=O)OC[C@H]1O [andrographolide]	0

(a) C=C1CC[C@@H]2[C@](C)(CO[C@@H]3O[C@H](CO)[C@@H](O)[C@H](O)[C@H]3O)CCC[C@@]2(C)[C@@H]1CCC1=CCOC1=O [neoandrographolide]
(b) C=C1CC[C@@H]2[C@](C)(CO)[C@H](O)CC[C@@]2(C)[C@@H]1CCC1=CCOC1=O [14-deoxyandrographolide]
Sorting ascending by concentration at 6 h, which comes first: a or b ? Refer to your chosen item by its label in the answer.
b

* * *

Assay text: Clinical pharmacokinetics, plasma LC-MS/MS after single oral dose of AP capsules
Type: in vivo, human (healthy volunteers)
Measurement setup: human, plasma, oral, 2000 mg, S1; 1.00 h; 2000 mg AP capsules; read-out: Plasma concentration
Test readout: concentration at 1 h (ng/mL)

C=C1CC[C@@H]2[C@](C)(CO)[C@H](O)CC[C@@]2(C)[C@@H]1C/C=C1/C(=O)OC[C@H]1O [andrographolide]	2.41

(A) C=C1CC[C@@H]2[C@](C)(CO)[C@H](O)CC[C@@]2(C)[C@@H]1CCC1=CCOC1=O [14-deoxyandrographolide]
(B) C=C1CC[C@@H]2[C@](C)(CO[C@@H]3O[C@H](CO)[C@@H](O)[C@H](O)[C@H]3O)CCC[C@@]2(C)[C@@H]1CCC1=CCOC1=O [neoandrographolide]
Which has the smaller recorded concentration at 1 h, A or B ? Your answer should be the label attached to the chosen record.
A

* * *

Assay text: Clinical pharmacokinetics, plasma LC-MS/MS after single oral dose of AP capsules
Assay type: in vivo, human (healthy volunteers)
Measurement setup: human, plasma, oral, 2000 mg, mean n=5; 0.00 h; 2000 mg AP capsules; read-out: Mean concentration
Test readout: concentration at 0 h (ng/mL)

C=C1CC[C@@H]2[C@](C)(CO)[C@H](O)CC[C@@]2(C)[C@@H]1CCC1=CCOC1=O [14-deoxyandrographolide]	0
C=C1CC[C@@H]2[C@](C)(CO[C@@H]3O[C@H](CO)[C@@H](O)[C@H](O)[C@H]3O)CCC[C@@]2(C)[C@@H]1CCC1=CCOC1=O [neoandrographolide]	0
C=C1CC[C@@H]2[C@](C)(CO)[C@H](O)CC[C@@]2(C)[C@@H]1C/C=C1/C(=O)OC[C@H]1O [andrographolide]	0

* * *

Assay text: Clinical pharmacokinetics, plasma LC-MS/MS after single oral dose of AP capsules
Assay type: in vivo, human (healthy volunteers)
Measurement setup: human; plasma, 2000 mg AP capsules oral, fasting, n=5
Test readout: half-life (min)

C=C1CC[C@@H]2[C@](C)(CO)[C@H](O)CC[C@@]2(C)[C@@H]1C/C=C1/C(=O)OC[C@H]1O [andrographolide]	43.2

(P) C=C1CC[C@@H]2[C@](C)(CO)[C@H](O)CC[C@@]2(C)[C@@H]1CCC1=CCOC1=O [14-deoxyandrographolide]
(Q) C=C1CC[C@@H]2[C@](C)(CO[C@@H]3O[C@H](CO)[C@@H](O)[C@H](O)[C@H]3O)CCC[C@@]2(C)[C@@H]1CCC1=CCOC1=O [neoandrographolide]
Rank P against Q by their half-life values and give the higher one. The response must carry the label of the picked entry.
P
